# ASSAYED_SYSTEM: NS5B-621 from HCV GT-1b Con-1 (Hepatitis C virus genotype 1b, UniProt Q9WMX2)
# TEST_METHOD_NOTES: NS5B RNA-dependent RNA polymerase inhibition assay
# Type: biochemical
# EXPERIMENTAL_SETUP: first IC50 column; 1 μM NTP substrates including either [32P]-CTP or [32P]-UTP, columns not distinguished
pIC50: −log10 of the molar value.
MEASURED_METRIC: pIC50

{"columns": ["MOLECULE_SMILES", "ASSAYED_SYSTEM", "MEASURED_METRIC", "NUMERIC_RESULT"],
 "data": [
  ["O=c1ccn([C@@H]2O[C@H](COP(=O)(O)OP(=O)(O)OP(=O)(O)O)[C@@H](O)[C@]2(O)CF)c(=O)[nH]1", "NS5B-621 from HCV GT-1b Con-1 (Hepatitis C virus genotype 1b, UniProt Q9WMX2)", "pIC50", 6.00]
]}
